# Tested on: 786-0
# measurement notes: NCI tumour cell line growth inhibition, 48 h
Activity calls are given as the source filed them. Cut-off read from the data, not from the text of the source: active = GI50 up to about 1.1 µM and inactive = higher.
Outcomes: TRUE (active), FALSE (inactive)

>>> classification("C[C@@H]1CC(=O)C2CCCC1C2=O (stereo partly specified)")
"FALSE"
>>> classification("CCOC(=O)/C=C1\\CCCC12OCCO2")
"FALSE"
>>> classification("COC(=O)CCC(=O)c1ccc2c(c1)CC1(C2)Cc2ccc3c(c2C1)CCCC3=O (stereo unspecified)")
"FALSE"
>>> classification("Cc1cn(C2CC(N(C)C)C(CO)O2)c(=O)[nH]c1=O (stereo unspecified)")
"FALSE"
>>> classification("CCOC(=O)c1cc2nc3ccccc3c(=O)n2c2ccccc12")
"FALSE"
>>> classification("N[C@@H]1c2c(Br)sc(Br)c2C(=O)[C@H]1Br")
"FALSE"
>>> classification("CCC1CCCCN1CC(C(C)=O)C(c1ccccc1)c1c(O)c2ccccc2oc1=O (stereo unspecified)")
"FALSE"
>>> classification("CN(C)c1ccc(/C(F)=C(F)/C(F)=C(F)/C(F)=C(\\F)c2ccc(Br)cc2)cc1")
"FALSE"
>>> classification("COC(=O)c1ccc(C)cc1CC1Cc2cc(C)ccc2C1=O (stereo unspecified)")
"FALSE"
>>> classification("CC(=O)O[C@H]1C(=O)[C@@]2(C)[C@H]([C@H](OC(=O)c3ccccc3)[C@]3(O)C[C@H](OC(=O)[C@H](O)[C@@H](NC(=O)c4ccco4)c4ccccc4)C(C)=C1C3(C)C)[C@]1(OC(C)=O)CO[C@@H]1C[C@@H]2O")
"TRUE"
>>> classification("CCCC(O)[C@@H](O)c1ccc2c(c1O)C(=O)c1c(OC)cccc1C2=O (stereo partly specified)")
"FALSE"
>>> classification("CCC1(CC)SCc2nc3ccccc3n21")
"FALSE"
>>> classification("O=C(O)c1nc(-c2ccccc2)ncc1-c1nnnn1-c1ccccc1")
"FALSE"
>>> classification("CCCN(CCc1ccc(-c2ccccc2)cc1)CCc1ccc2nn[nH]c2c1")
"FALSE"
>>> classification("CC1(C)CC2=NO[Se]3=C2C(=NO3)C1")
"FALSE"
>>> classification("O=C(/C=C/c1ccc(Br)cc1)c1ccc(NCc2nc3ccccc3[nH]2)cc1")
"FALSE"
>>> classification("O=C(c1cccs1)N(C(=O)N1CCCCC1)c1ccccc1")
"FALSE"
>>> classification("NC(=O)c1ccc(NCC2=CC(=O)C=CC2=O)cc1")
"FALSE"
>>> classification("CC(=O)N(C)c1ccc2c(ccc[n+]2[O-])c1[N+](=O)[O-]")
"FALSE"
>>> classification("O=C(c1cccnc1)N1N=C(c2ccc3c(c2)OCO3)CC1(O)c1cc(F)c(Cl)cc1Cl (stereo unspecified)")
"FALSE"
>>> classification("COc1ccc2c3c1O[C@H](c1ccc(O)cc1)[C@H]3[N+](C)(C)CC2")
"FALSE"

====

# Tested on: NCI-H522
# measurement notes: NCI tumour cell line growth inhibition, 48 h
The source made the active and inactive calls. Cut-off read from the data, not from the text of the source: active = GI50 up to about 1.1 µM and inactive = higher.
property name: GI50

>>> observed_value("C[C@@H]1CC(=O)C2CCCC1C2=O (stereo not given in full)")
"> 100 µM (inactive)"
>>> observed_value("Cc1ccc(Nc2nc(C)c(C(/C=C/c3ccc4c(c3)OCO4)=N/Nc3ccc([N+](=O)[O-])cc3[N+](=O)[O-])s2)c([N+](=O)[O-])c1")
"14.2 µM (inactive)"
>>> observed_value("C1CCOC2(CCC3(CC2)OCCCCO3)OC1")
"> 100 µM (inactive)"
>>> observed_value("O=C(/C=C\\c1cccc2ccccc12)c1ccc(Cl)cc1Cl")
"19.2 µM (inactive)"
>>> observed_value("COc1cc(C(=O)C/C(CCC(=O)Nc2ccccc2[N+](=O)[O-])=N\\NC(N)=O)ccc1O")
"> 100 µM (inactive)"
>>> observed_value("COc1ccc(C(=O)C(C(=O)C(=O)Nc2nccs2)c2ccc(OC)cc2)cc1 (stereo not given)")
"92 µM (inactive)"
>>> observed_value("NC(Cc1c[nH]c2ccccc12)P(=O)(O)O (stereo not given)")
"> 100 µM (inactive)"
>>> observed_value("Cc1ccc(S[C@@H](C)[C@@](O)(CF)CN(Cc2ccccc2)C(=O)C(F)(F)F)cc1")
"> 100 µM (inactive)"
>>> observed_value("S=C=NCc1ccccc1 [BENZYL ISOTHIOCYANATE]")
"1.22 µM (inactive)"
>>> observed_value("Cc1cc(C)c(-n2c(C)c(C)c(C#N)c2N)c(C)c1")
"21 µM (inactive)"

====

# Tested on: SNB-75
# measurement notes: NCI tumour cell line growth inhibition, 48 h
The source made the active and inactive calls. No stated cut-off is given here; in the data, active = GI50 up to about 1.1 µM and inactive = higher.
property name: GI50

>>> observed_value("C=C(C)C1CCC2=CC(CC3(C)OC3C3=CC(C(=O)OC)=C(C1)O3)OC2=O (stereo not given)")
"56.2 µM (inactive)"
>>> observed_value("COC(=O)C1=Nc2c(C)nn(-c3ccccc3)c2N=C(c2ccc([N+](=O)[O-])cc2)C1")
"> 10 µM (inactive)"
>>> observed_value("CCOC(=O)c1c(C)n(Cc2ccccc2)c(=O)c2ccccc2c(=O)c2c(=O)ccc(=O)c1=2")
"> 100 µM (inactive)"
>>> observed_value("Cc1ccc(S(=O)(=O)N2CCCSCCSCCCSCC2)cc1")
"86.7 µM (inactive)"
>>> observed_value("CC1(C)CC2=NO[Se]3=C2C(=NO3)C1")
"2.68 µM (inactive)"

====

# Tested on: MDA-MB-231
# measurement notes: NCI tumour cell line growth inhibition, 48 h
The source made the active and inactive calls. Cut-off read from the data, not from the text of the source: active = GI50 up to about 1.1 µM and inactive = higher.
property name: GI50

>>> observed_value("N#CC(C#N)=C(N)/C(C#N)=C/c1ccc(O)c(O)c1")
"> 100 µM (inactive)"
>>> observed_value("CCC1OC2C(CC=C(C)C)=C3OC(C)(O)C(C)(CC)C(=O)C3=C3OC(=O)C=C1C32 (stereo not drawn)")
"15.5 µM (inactive)"
>>> observed_value("N[C@@H]1c2c(Br)sc(Br)c2C(=O)[C@H]1Br")
"23.6 µM (inactive)"
>>> observed_value("CCOC(=O)c1c[nH]c2cc3c(cc2c1=O)CCS3")
"> 100 µM (inactive)"
>>> observed_value("O=C1CCCCC1CN1CCCCC1 (stereo not drawn)")
"> 100 µM (inactive)"
>>> observed_value("Cc1nc(O)c(Cc2ccccc2O)c(-c2ccccc2)n1")
"98.9 µM (inactive)"
>>> observed_value("CC[N+]1(C)CCC(O)(c2ccc(Cl)cc2)C(C(=O)c2ccc(Cl)cc2)C1 (stereo not drawn)")
"14.9 µM (inactive)"
>>> observed_value("O=C(CC(=O)N(C(=O)c1ccccc1)c1ccc(Cl)cc1)N/N=C\\c1cc(/N=N/c2ccccc2Cl)ccc1O")
"29.2 µM (inactive)"
>>> observed_value("Cc1cn(C2CC(O)C(Cn3nncc3Cn3ncc(=O)[nH]c3=O)O2)c(=O)[nH]c1=O (stereo not drawn)")
"> 100 µM (inactive)"
>>> observed_value("CCCc1c(OC)c(=O)c2c(OC)cc(OC)c3c4c(OC)cc(OC)c5c(=O)c(OC)c(CCC)c(c1c23)c54")
"4.38 µM (inactive)"
>>> observed_value("CCCCCCCCCCCCCCCCCCNc1ccn(C2OC(CO)C(O)C2O)c(=O)n1 (stereo not drawn)")
"> 100 µM (inactive)"
>>> observed_value("CC(=O)N(CN1C(=O)CCC1C(=O)O)c1ccccc1 (stereo not drawn)")
"> 48.8 µM (inactive)"
>>> observed_value("O=c1c2ccccc2oc2nc3n(c(=O)c12)CCCS3")
"> 100 µM (inactive)"
>>> observed_value("CO[C@@H]1C[C@H]2[C@@H]3CC[C@H]([C@H](C)COC(C)=O)[C@@]3(C)CC[C@@H]2[C@@]2(C)CC[C@H]3C[C@]312")
"> 100 µM (inactive)"
>>> observed_value("NC(=O)c1nnsc1N/N=C/c1ccc([N+](=O)[O-])cc1")
"> 100 µM (inactive)"
>>> observed_value("O=S(=O)(O)C1CCC(O)C2NCCCC21 (stereo not drawn)")
"> 100 µM (inactive)"
>>> observed_value("CC(=O)N1N=C(c2ccccc2Nc2ccccc2C2=NN(C(C)=O)C(c3ccccc3)O2)OC1c1ccccc1 (stereo not drawn)")
"> 100 µM (inactive)"
>>> observed_value("COc1cc(C2OC(N)=C(C#N)C3=C2C(C)CCC3)cc(OC)c1OC (stereo not drawn)")
"30.3 µM (inactive)"
>>> observed_value("COc1ccc(N2C(=O)C3c4[nH]c5cc(Cl)ccc5c4C4CCC(C(C)(C)C)CC4C3C2=O)cc1 (stereo not drawn)")
"> 100 µM (inactive)"
>>> observed_value("O=C(c1cccnc1)N1N=C(c2ccc3c(c2)OCO3)CC1(O)c1cc(F)c(Cl)cc1Cl (stereo not drawn)")
"17.3 µM (inactive)"
>>> observed_value("CC1CN=C(NCc2ccccc2)S1 (stereo not drawn)")
"> 100 µM (inactive)"
>>> observed_value("Cc1ccc(Cl)cc1/N=N/C(=O)NNc1cc(Cl)ccc1C")
"16.8 µM (inactive)"
>>> observed_value("NC(CCP(=O)(O)O)C(=O)O (stereo not drawn)")
"> 100 µM (inactive)"
>>> observed_value("OC(c1ccc(F)cc1)C(F)(F)c1nc(-c2ccccc2)no1 (stereo not drawn)")
"2.43 µM (inactive)"
>>> observed_value("CN1CCCCC1CCN1CCCCC1 (stereo not drawn)")
"> 100 µM (inactive)"
>>> observed_value("Cc1cc(C)c(-n2c(C)c(C)c(C#N)c2N)c(C)c1")
"33.6 µM (inactive)"
>>> observed_value("C#CCCCC(=O)N(C(=O)C[S+]([O-])CC)c1ccccc1 (stereo not drawn)")
"> 100 µM (inactive)"
>>> observed_value("COc1ccc(/C=C(/C(=O)c2ccc(Cl)cc2)N2C=CC=CC2=C(C#N)C#N)cc1OC")
"6.24 µM (inactive)"
>>> observed_value("Oc1ccc2c(c1)-c1c(c3cc(O)ccc3n1CCN1CCOCC1)CC2")
"17.6 µM (inactive)"
>>> observed_value("O=C/C=C/c1ccco1")
"> 100 µM (inactive)"
>>> observed_value("C#CCOC(=O)c1ccc(OC(C)=O)cc1")
"> 100 µM (inactive)"
>>> observed_value("Cn1c(-c2ccccc2)cc2c3ccsc3c3ccsc3c21")
"> 100 µM (inactive)"
>>> observed_value("CC(C)(C)OC(=O)NCC(=O)N1CCN(C(=O)CNC(=O)OC(C)(C)C)CC1")
"> 100 µM (inactive)"
>>> observed_value("C[N+](C)(C)CC1CCC(C[N+](C)(C)C)C1=O (stereo not drawn)")
"19.6 µM (inactive)"
>>> observed_value("Cn1nnc2c(C(N)=O)ncn2c1=O [TEMOZOLOMIDE]")
"> 100 µM (inactive)"
>>> observed_value("Nc1ccc(Cc2ccc(N)c(C(=O)O)c2)cc1C(=O)O")
"> 100 µM (inactive)"
>>> observed_value("COC(=O)c1ccc(C)cc1CC1Cc2cc(C)ccc2C1=O (stereo not drawn)")
"> 100 µM (inactive)"
>>> observed_value("CC1OC(OC2C(CO)OC(O[C@H]3CC[C@@]4(C)C(=CC[C@H]5[C@@H]6C[C@@H]7O[C@](O)(CC[C@H](CO)COC8OC(CO)C(O)C(O)C8O)[C@@H](C)[C@@H]7[C@@]6(C)CC[C@@H]54)C3)C(OC3OC(C)C(O)C(O)C3O)C2O)C(O)C(O)C1O (stereo partly drawn)")
"> 100 µM (inactive)"
>>> observed_value("COC(=O)NC(Cc1ccccc1)NC(C)=O (stereo not drawn)")
"71 µM (inactive)"
>>> observed_value("COc1cc2c(cc1OC)C(=O)/C(=C/c1cc(Cl)cc(Cl)c1)C2")
"11.3 µM (inactive)"
>>> observed_value("NS(=O)(=O)c1ccc(/N=N/c2ncccc2O)cc1")
"> 100 µM (inactive)"
>>> observed_value("O=C(NO)c1ccc(C(=O)NO)cc1")
"43.6 µM (inactive)"
>>> observed_value("Nc1ncnc2c1ncn2Cc1cccc(CCl)c1")
"16.6 µM (inactive)"
